biological target: firefly luciferase (Photinus pyralis, UniProt P08659); experiment: Non-detergent compound screen, firefly luciferase (Example 6); assay type: biochemical; conditions: inhibitor 100 μM; 0.5% Tergitol NP-9, 0.03% BDDABr; read-out: Retained Firefly Luciferase Value (%)
Sequence (P08659 whole entry): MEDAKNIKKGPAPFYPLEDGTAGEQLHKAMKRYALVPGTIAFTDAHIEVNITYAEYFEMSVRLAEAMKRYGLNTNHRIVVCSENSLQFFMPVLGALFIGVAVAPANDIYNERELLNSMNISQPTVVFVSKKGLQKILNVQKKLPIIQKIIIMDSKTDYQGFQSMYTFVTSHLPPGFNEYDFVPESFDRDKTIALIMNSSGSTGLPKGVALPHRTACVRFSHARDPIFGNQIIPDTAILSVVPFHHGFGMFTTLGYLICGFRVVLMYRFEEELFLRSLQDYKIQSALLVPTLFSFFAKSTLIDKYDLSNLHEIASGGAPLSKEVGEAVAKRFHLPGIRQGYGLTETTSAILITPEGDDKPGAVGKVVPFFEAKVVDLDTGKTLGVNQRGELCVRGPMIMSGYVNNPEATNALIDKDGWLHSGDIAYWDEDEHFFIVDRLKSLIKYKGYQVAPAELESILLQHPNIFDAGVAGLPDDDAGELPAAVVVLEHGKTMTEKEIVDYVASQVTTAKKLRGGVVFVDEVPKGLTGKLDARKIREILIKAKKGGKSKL
Measure name: remaining activity at 100 µM (%)
Quick note: give the figure in %, leave out the unit.

I'd like to know its remaining activity at 100 µM. The compound in question is COc1cc(OC)c(CNC(=O)/C=C/c2ccc3[nH]cc(CCN(C)C)c3c2)c(OC)c1
100

I'd like to know its remaining activity at 100 µM. The compound in question is COc1cc(CNC(=O)/C=C/c2ccc3[nH]cc(CCN(C)C)c3c2)cc(OC)c1OC
101

Attention now shifts to the item below.
I'd like to know its remaining activity at 100 µM. The compound in question is COc1ccc(CNC(=O)/C=C/c2ccc3c(c2)c(CCN(C)C)cn3Cc2ccccc2)cc1
98
